System: MDR1-MDCK cell monolayers
Settings: dog, MDCK-MDR1, 120 min, 5 μM, pH 7.4
quantity kind: MDCK-MDR1: % Recov B-A (%)
One number for each entry, in %.

Consider the following items and state reported MDCK-MDR1: % Recov B-A (%) for each.
1. Cn1ccc(-c2ccc(-c3cnc(N(C4CC4)[C@H]4C[C@@H]5CCC(N5)[C@H]4F)cn3)c(O)c2)cc1=O (single isomer, unassigned)
2. COc1cc(-c2ccc(-c3cnc(N(C)[C@H]4C[C@]5(C)CC[C@@](C)(N5)[C@H]4F)cn3)c(O)c2)cnn1
3. Cn1ccc(-c2ccc(-c3cnc(N(C4CC4)[C@@H]4CC5CC[C@H](N5)[C@@H]4F)cn3)c(O)c2)cc1=O (single isomer, unassigned)

Result:
69
70
71

====

Tested on: MDR1
Assay: in vitro
Conditions: dog, MDCK-MDR1, pH 7.4, MDCK-MDR1: Papp A-B (10^−6, cm/s)
quantity kind: Papp A→B at 120 min, 5 μM (×10⁻⁶ cm/s)
Answers are plain numbers, in ×10⁻⁶ cm/s.

Reference set (2 entries):
{"molecule": "COc1cc(-c2ccc(-c3cnc(N(C)[C@@H]4CC5CC[C@H](N5)[C@@H]4F)cn3)c(O)c2)cnn1 (single isomer, unassigned) [Compound 26E1]", "Papp A→B at 120 min, 5 μM, ×10⁻⁶ cm/s": 5.06}
{"molecule": "CN(c1cnc(-c2ccc(-c3ccn(C)c(=O)c3)cc2O)cn1)[C@H]1CC2CCC[C@@H](N2)[C@H]1F (single isomer, unassigned) [Compound 5E2]", "Papp A→B at 120 min, 5 μM, ×10⁻⁶ cm/s": 1.96}

Now look at this entry.
Task: Given the molecule CN(c1cnc(-c2ccc(-c3ccn(C)c(=O)c3)cc2O)cn1)[C@@H]1C[C@H]2CCC[C@H](N2)[C@@H]1F [Compound 5E1] , what is its reported Papp A→B at 120 min, 5 μM?
Result: 2.04

====

Test system: MDR1-MDCK cell monolayers
Settings: dog, MDCK-MDR1, 120 min, 5 μM, pH 7.4
quantity kind: MDCK-MDR1: % Recov A-B (%)
Answers are plain numbers, in %.

Consider the following items and state reported MDCK-MDR1: % Recov A-B (%) for each.
1. CN(c1cnc(-c2ccc(C3=CC(=O)NC3)cc2O)cn1)[C@H]1C[C@@H]2CCC(N2)[C@H]1F (single isomer, unassigned)
2. COc1cc(-c2ccc(-c3cnc(N(C)[C@@H]4CC5CC(F)(F)[C@@H](C4)N5)cn3)c(O)c2)cnn1 (single isomer, unassigned)
3. CN(c1cnc(-c2ccc(-c3ccn(C)c(=O)c3)cc2O)cn1)[C@H]1CC2CCC[C@@H](N2)[C@H]1F (single isomer, unassigned)

Result:
1: 94; 2: 66; 3: 78
